TARGET SYSTEM: GRK6, recombinant full-length GST-tagged human protein (Homo sapiens)
Construct: GRK6, recombinant full-length GST-tagged human protein; GST
Sequence (P43250 whole entry): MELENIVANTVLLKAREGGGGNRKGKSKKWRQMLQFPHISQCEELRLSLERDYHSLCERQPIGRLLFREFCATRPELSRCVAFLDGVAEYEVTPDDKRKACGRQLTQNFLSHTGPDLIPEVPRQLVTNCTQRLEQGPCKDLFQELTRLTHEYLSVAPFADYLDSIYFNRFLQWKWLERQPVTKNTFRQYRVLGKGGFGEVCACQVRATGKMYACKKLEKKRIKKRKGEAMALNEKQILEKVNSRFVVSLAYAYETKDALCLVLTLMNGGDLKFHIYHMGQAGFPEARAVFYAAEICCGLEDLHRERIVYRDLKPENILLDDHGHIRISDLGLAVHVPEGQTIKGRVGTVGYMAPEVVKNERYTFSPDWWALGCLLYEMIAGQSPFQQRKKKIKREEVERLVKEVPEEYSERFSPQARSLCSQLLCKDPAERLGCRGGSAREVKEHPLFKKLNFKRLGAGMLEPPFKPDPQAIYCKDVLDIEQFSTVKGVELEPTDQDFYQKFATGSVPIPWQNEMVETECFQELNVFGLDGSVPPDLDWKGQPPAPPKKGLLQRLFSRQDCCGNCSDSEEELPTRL
ASSAY EXPLANATION: GRK6 IC50 determination (8-point concentration-response)
Format: biochemical
IC50 overview
Note: unit nM is implicit; provide only the numeric part.

Cc1cncc(-c2cc(-c3ccc4ccccc4c3)cc(-c3nnc(SCC(=O)O)[nH]3)c2)c1 [Compound 34] | 349
O=C(O)CSc1nnc(-c2cccc3c2OCO3)[nH]1 [Compound 164] | 18500
Cc1c(-c2cc(-c3ccc4ccccc4c3)cc(-c3nnc(SCC(=O)O)[nH]3)c2)cnn1C [Compound 38] | 376
O=C(O)CSc1nnc(-c2cccc(C(=O)NCc3ccccc3)c2)[nH]1 [Compound 176] | 33300

[in] Item under review: O=C(O)CSc1nnc(-c2ccc3ccccc3c2)[nH]1 [Compound 85] . Reported IC50?
[out] 886

[in] Now give it for Cc1c(-c2cc(-c3nnc(SCC(=O)O)[nH]3)cc([N+](=O)[O-])c2)ccc2[nH]c(C(N)=O)cc12 [Compound 235] too.
[out] 358

[in] Now give it for CC(C)Oc1ccc(-c2nnc(SCC(=O)O)[nH]2)cc1N [Compound 190] too.
[out] 80600

[in] Now give it for O=C(O)CSc1nnc(-c2cc(-c3ccc4ccccc4c3)cc([N+](=O)[O-])c2)[nH]1 [Compound 6] too.
[out] 78.4

[in] Now give it for O=C(O)CSc1nnc(-c2cc(-c3ccc4[nH]cnc4c3)cc([N+](=O)[O-])c2)[nH]1 [Compound 26] too.
[out] 249

[in] Now give it for Cc1ncc(-c2cc(-c3ccc4ccccc4c3)cc(-c3nnc(SCC(=O)O)[nH]3)c2)cn1 [Compound 44] too.
[out] 437

[in] Now give it for O=C(O)CSc1nnc(-c2cc(-c3cnn(-c4cccc(Cl)c4)c3)cc([N+](=O)[O-])c2)[nH]1 [Compound 71] too.
[out] 131
